TGT: CDK9/Cyclin T1 (Homo sapiens)
Sequence (P50750 whole entry): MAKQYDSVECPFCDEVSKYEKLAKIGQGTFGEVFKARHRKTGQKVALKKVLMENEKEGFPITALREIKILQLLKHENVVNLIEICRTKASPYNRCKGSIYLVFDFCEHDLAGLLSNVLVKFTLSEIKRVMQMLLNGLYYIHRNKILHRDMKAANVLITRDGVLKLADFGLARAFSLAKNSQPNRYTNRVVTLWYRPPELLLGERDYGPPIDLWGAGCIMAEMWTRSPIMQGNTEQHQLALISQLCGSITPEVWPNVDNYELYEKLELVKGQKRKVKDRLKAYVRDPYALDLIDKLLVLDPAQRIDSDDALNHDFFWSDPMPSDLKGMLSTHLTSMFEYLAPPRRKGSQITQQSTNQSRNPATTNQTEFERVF
Sequence (O60563 whole entry partner): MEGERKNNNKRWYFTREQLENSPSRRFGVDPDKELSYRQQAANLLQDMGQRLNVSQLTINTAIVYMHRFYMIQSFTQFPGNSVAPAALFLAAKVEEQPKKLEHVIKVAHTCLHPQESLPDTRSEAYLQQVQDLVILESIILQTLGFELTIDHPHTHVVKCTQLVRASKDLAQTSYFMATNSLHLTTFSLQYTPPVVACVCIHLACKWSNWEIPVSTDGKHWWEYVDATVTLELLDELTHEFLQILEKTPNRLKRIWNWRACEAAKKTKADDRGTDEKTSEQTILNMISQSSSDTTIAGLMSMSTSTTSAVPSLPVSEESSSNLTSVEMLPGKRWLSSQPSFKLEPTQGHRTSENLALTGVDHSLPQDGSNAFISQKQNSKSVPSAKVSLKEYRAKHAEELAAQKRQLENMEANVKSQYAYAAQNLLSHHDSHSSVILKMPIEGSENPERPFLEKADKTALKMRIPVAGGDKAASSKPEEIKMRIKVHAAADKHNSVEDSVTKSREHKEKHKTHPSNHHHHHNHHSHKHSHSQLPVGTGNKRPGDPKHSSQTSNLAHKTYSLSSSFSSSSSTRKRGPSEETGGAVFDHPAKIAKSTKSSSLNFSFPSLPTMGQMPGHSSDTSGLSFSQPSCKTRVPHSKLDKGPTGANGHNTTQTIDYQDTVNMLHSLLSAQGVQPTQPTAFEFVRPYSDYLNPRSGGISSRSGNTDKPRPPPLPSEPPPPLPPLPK
ASSAY_COMMENT: Kinase assay using CDK9/Cyclin T1
SETTINGS: read-out: CDK9 (activity range)
MEASURE: IC50

Take a look at these entries with their results.
COMPOUND_SMILES	IC50
CC(C)(C)C(=O)Nc1ccc(Nc2cc(NCCCO)ncn2)cc1	10 to 250 µM
Nc1ccc(C(=O)Nc2ccc(Nc3cc(-c4ccccc4)ncn3)cc2)cc1	1 to 10 µM
Nc1ccc(C(=O)Nc2ccc(Nc3cc(-c4cccc(N)c4)ncn3)cc2)cc1	1 to 10 µM

Endpoint output: IC50 of "CS(=O)(=O)Nc1cc(Nc2cc(-c3cccc(N)c3)ncn2)ccc1OCc1ccccc1" . Value?
1 to 10 µM

Subsequent entry: "COC(=O)CN(c1ccc(Nc2cc(-c3ccccc3OC)ncn2)cc1)S(=O)(=O)c1ccc(C)cc1"
1 to 10 µM

Okay, and "CN(C)c1cccc(-c2cc(Nc3ccc(NC(=O)[C@@H]4CCCCN4)cc3)ncn2)c1" ?
1 to 10 µM
